target: T1, glucagon receptor of wild-type mice (liver, in vivo) (mouse, UniProt Q61606 27-485); assay: in vivo GCGR receptor occupancy, competition assay in wild-type mice, 3 mpk s.c.
T1 construct: whole, on cells; Receptor occupancy measured in vivo in liver; also called GCGR; GGCR
T1 sequence (Q61606 27-485): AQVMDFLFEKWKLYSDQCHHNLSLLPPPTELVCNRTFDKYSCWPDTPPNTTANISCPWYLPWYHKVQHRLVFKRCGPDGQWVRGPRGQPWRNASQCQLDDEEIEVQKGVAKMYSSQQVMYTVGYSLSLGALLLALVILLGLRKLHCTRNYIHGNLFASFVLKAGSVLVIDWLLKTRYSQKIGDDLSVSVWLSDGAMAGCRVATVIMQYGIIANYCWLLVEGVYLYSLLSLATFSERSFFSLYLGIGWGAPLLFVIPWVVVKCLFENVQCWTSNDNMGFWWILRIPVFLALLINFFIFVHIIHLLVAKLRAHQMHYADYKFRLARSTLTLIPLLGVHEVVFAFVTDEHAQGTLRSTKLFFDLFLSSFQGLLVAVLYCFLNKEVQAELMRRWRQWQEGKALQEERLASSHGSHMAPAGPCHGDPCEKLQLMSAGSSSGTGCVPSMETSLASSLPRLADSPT
assay endpoint: % RO @ 3 mpk s.c. (%)
Response body: numeric value in %, unit text excluded.

Recorded % RO @ 3 mpk s.c. of HXQGTFTSDYSKYLDSRRAQDFVQWLMNTKRNRNNIAK (Aib at position 2; K(palmitoyl) at position 38; C-terminal amide) [OXM177] , please.
30

Also HSQGTFTSDYSKYLDSRRAQDFVQWLMNTKRNRNNIAC (D-Ser at position 2; C7 = Cys(Oxa4-cholesterol) at position 38; C-terminal amide) [OXM115] , if possible.
36

Next:
Recorded % RO @ 3 mpk s.c. of HXQGTFTSDYSKYLDSRRAQDFVQWLMNTKRNRNNIAC (Aib at position 2; C7 = Cys(Oxa4-cholesterol) at position 38; C-terminal amide) [OXM216] , please.
10

From: patent US20120165503A1
